- Experimental Conditions: 333.15 K; 102 kPa; Liquid; Concentric cylinders viscometry
± gives the expanded uncertainty stated by the source.
Kindly supply the reported viscosity values for the records listed here.
A complete answer gives the number followed by the unit.

CCCCCCCCCC1CCCCC1 1.85 ± 0.02 mPa·s
CCCCCCC1CCCCC1 1.09 ± 0.01 mPa·s
CCCCCCCCCCCCC1CCCCC1 2.88 ± 0.02 mPa·s
CCCCCC1CCCCC1 0.895 ± 0.012 mPa·s
CCCCCCCCCCCCCCCC 1.56 ± 0.01 mPa·s
CCCCCCCCCCC1CCCCC1 2.16 ± 0.02 mPa·s
CCCC1CCCCC1 0.584 ± 0.011 mPa·s
CCCCCCCCC1CCCCC1 1.58 ± 0.02 mPa·s

Please turn your attention to the following entry.
viscosity reported for this compound CCCCCCCC1CCCCC1 : 1.33 ± 0.01 mPa·s

###

- Experimental Conditions: 323.15 K; 102 kPa; Liquid; Concentric cylinders viscometry
y if viscosity is below 2 mPa·s. n if not; exact matches included in n.

Solved entries (count: 6):
CCCCCCCCCC1CCCCC1 n
CCCCCCCC1CCCCC1 y
CCCCCCCCCCCCC1CCCCC1 n
CCCCCCC1CCCCC1 y
CCCCCCCCC1CCCCC1 y
CCCCCCCCCCCCCCCC y

Query :: Field: below-cutoff. Rule: recorded viscosity strictly less than 2 mPa·s. Subject: CCCCCCCCCCC1CCCCC1
Result :: n

Query :: Field: below-cutoff. Rule: recorded viscosity strictly less than 2 mPa·s. Subject: CCCCCC1CCCCC1
Result :: y

Query :: Field: below-cutoff. Rule: recorded viscosity strictly less than 2 mPa·s. Subject: CCCC1CCCCC1
Result :: y

###

- Experimental Conditions: 323.15 K; 102 kPa; Liquid; Frequency=3 MHz; Single path-length method
Measured Property: speed of sound (m/s)
One number for each entry, in m/s.

CCCCCCCCCC1CCCCC1 1287.1
CCCCCCCC1CCCCC1 1262.1
CCCCCCC1CCCCC1 1247.1
CCCCCCCCCCCCC1CCCCC1 1315.2
CCCCCC1CCCCC1 1230.1
CCCCCCCCC1CCCCC1 1275.9
CCCC1CCCCC1 1185.9

Please turn your attention to the following entry.
speed of sound reported for this compound CCCCCCCCCCC1CCCCC1 : 1297.5

###

- Experimental Conditions: 343.15 K; 102 kPa; Liquid; Concentric cylinders viscometry
Measured Property: viscosity (mPa·s)
Give bare numbers, in mPa·s.

// known answers, use as guide
CCCCCCCC1CCCCC1 1.15
CCCCCCCCCCCCC1CCCCC1 2.39
CCCCCC1CCCCC1 0.799
CCCCCCCCCC1CCCCC1 1.57
CCCCCCCCCCC1CCCCC1 1.82

For each of the compounds below, note its viscosity.
1. CCCCCCCCCCCCCCCC
2. CCCCCCC1CCCCC1
3. CCCC1CCCCC1
4. CCCCCCCCC1CCCCC1

Result ::
1: 1.35; 2: 0.964; 3: 0.544; 4: 1.36

###

- Experimental Conditions: 303.15 K; 102 kPa; Liquid; Vibrating tube method
Measured Property: mass density (kg/m3)
One number for each entry, in kg/m3.

Compound	Unit Info	Reported Result
CCCCCCC1CCCCC1 [hexylcyclohexane]	kg/m3	800.56
CCCCCCCCC1CCCCC1 [octylcyclohexane]	kg/m3	807.22
CCCCCCCCCCCCCCCC [hexadecane]	kg/m3	766.43
CCCCCCCCCCC1CCCCC1 [decylcyclohexane]	kg/m3	811.78
CCCCCCCCCCCCC1CCCCC1 [dodecylcyclohexane]	kg/m3	815.65
CCCCCCCC1CCCCC1 [heptylcyclohexane]	kg/m3	803.96
CCCCCC1CCCCC1 [pentylcyclohexane]	kg/m3	796.8
CCCCCCCCCC1CCCCC1 [nonylcyclohexane]	kg/m3	809.57

Please turn your attention to the following entry.
mass density reported for this compound CCCC1CCCCC1 [1-cyclohexylpropane] : 785.73

###

Kindly supply the reported speed of sound values for the records listed here.
- Experimental Conditions: 333.15 K; 102 kPa; Liquid; Frequency=3 MHz; Single path-length method
Give bare numbers, in m/s.

CCCCCCCCCCCCC1CCCCC1 1281.1

For each of the compounds below, note its speed of sound.
1. CCCCCCC1CCCCC1
2. CCCC1CCCCC1

Result ::
1: 1211; 2: 1147.3

For each of the compounds below, note its speed of sound.
1. CCCCCCCCCCC1CCCCC1
2. CCCCCCCCCC1CCCCC1
3. CCCCCC1CCCCC1

Result ::
1: 1262.9; 2: 1252.2; 3: 1193.4

For each of the compounds below, note its speed of sound.
1. CCCCCCCC1CCCCC1
2. CCCCCCCCC1CCCCC1

Result ::
1. 1226.5
2. 1240.5

###

- Experimental Conditions: 293.15 K; 102 kPa; Liquid; Frequency=3 MHz; Single path-length method
Kindly supply the reported speed of sound values for the records listed here.
One number for each entry, in m/s.

Molecule	Unit Info	speed of sound
CCCCCCCCC1CCCCC1 [octylcyclohexane]	m/s	1387

For each of the molecules below, note its speed of sound.
1. CCCC1CCCCC1 [1-cyclohexylpropane]
2. CCCCCCCCCC1CCCCC1 [nonylcyclohexane]

Result ::
1307.8
1397.2

###

- Experimental Conditions: 373.15 K; 102 kPa; Liquid; Concentric cylinders viscometry
label 1 if viscosity is below 1 mPa·s. label 0 if not; exact matches included in label 0.

CCCCCCCC1CCCCC1 label 1

Query :: Field: below-cutoff. Rule: recorded viscosity strictly less than 1 mPa·s. Subject: CCCCCCCCCCCCCCCC
Result :: label 1

Query :: Field: below-cutoff. Rule: recorded viscosity strictly less than 1 mPa·s. Subject: CCCCCCCCCC1CCCCC1
Result :: label 0

Query :: Field: below-cutoff. Rule: recorded viscosity strictly less than 1 mPa·s. Subject: CCCCCCCCCCCCC1CCCCC1
Result :: label 0

Query :: Field: below-cutoff. Rule: recorded viscosity strictly less than 1 mPa·s. Subject: CCCCCCCCCCC1CCCCC1
Result :: label 0

Query :: Field: below-cutoff. Rule: recorded viscosity strictly less than 1 mPa·s. Subject: CCCCCCCCC1CCCCC1
Result :: label 1

###

- Experimental Conditions: 373.15 K; 102 kPa; Liquid; Vibrating tube method
Numbers after ± are expanded uncertainties.
Kindly supply the reported mass density values for the records listed here.

Compound	mass density
CCCCCCCCCCC1CCCCC1 [decylcyclohexane]	764.4 ± 0.8 kg/m3
CCCCCCCCC1CCCCC1 [octylcyclohexane]	758.5 ± 0.8 kg/m3
CCCCCCCCCCCCC1CCCCC1 [dodecylcyclohexane]	769.2 ± 0.8 kg/m3
CCCCCCCCCC1CCCCC1 [nonylcyclohexane]	761.6 ± 0.9 kg/m3
CCCCCCCCCCCCCCCC [hexadecane]	717.9 ± 0.8 kg/m3

Please turn your attention to the following entry.
mass density reported for this compound CCCCCCCC1CCCCC1 [heptylcyclohexane] : 754.4 ± 0.8 kg/m3

###

- Experimental Conditions: 343.15 K; 102 kPa; Liquid; Vibrating tube method
Measured Property: mass density (kg/m3)
One number for each entry, in kg/m3.

CCCCCCCCCCC1CCCCC1 784.8

For each of the molecules below, note its mass density.
1. CCCCCCC1CCCCC1
2. CCCCCCCC1CCCCC1
3. CCCCCCCCC1CCCCC1
4. CCCCCC1CCCCC1
5. CCCCCCCCCCCCC1CCCCC1
6. CCCCCCCCCC1CCCCC1

Result ::
[771.8, 775.8, 779.5, 767.3, 789.1, 782.2]

mass density reported for this molecule CCCC1CCCCC1 : 754.2

###

Kindly supply the reported viscosity values for the records listed here.
- Experimental Conditions: 313.15 K; 102 kPa; Liquid; Concentric cylinders viscometry
Give bare numbers, in mPa·s.

CCCCCCCCC1CCCCC1 2.27
CCCCCCCCCCC1CCCCC1 3.23
CCCCCCCC1CCCCC1 1.86
CCCCCC1CCCCC1 1.21
CCCCCCCCCCCCC1CCCCC1 4.48
CCCCCCCCCC1CCCCC1 2.72
CCCCCCC1CCCCC1 1.51
CCCCCCCCCCCCCCCC 2.24

viscosity reported for this molecule CCCC1CCCCC1 : 0.75

###

- Experimental Conditions: 353.15 K; 102 kPa; Liquid; Vibrating tube method
Measured Property: mass density (kg/m3)
Numbers only, in kg/m3.

// known answers, use as guide
CCCCCCCC1CCCCC1 768.7
CCCC1CCCCC1 746.1
CCCCCCC1CCCCC1 764.6
CCCCCC1CCCCC1 759.9
CCCCCCCCCCCCCCCC 731.9

Please turn your attention to the following entry.
mass density reported for this compound CCCCCCCCCCCCC1CCCCC1 : 782.5
